Target: CRTH2 (KB8 cells) (Homo sapiens)
Construct: host or cells: KB8 cells (human CRTH2 expression cell)
Sequence (Q9Y5Y4 1-395): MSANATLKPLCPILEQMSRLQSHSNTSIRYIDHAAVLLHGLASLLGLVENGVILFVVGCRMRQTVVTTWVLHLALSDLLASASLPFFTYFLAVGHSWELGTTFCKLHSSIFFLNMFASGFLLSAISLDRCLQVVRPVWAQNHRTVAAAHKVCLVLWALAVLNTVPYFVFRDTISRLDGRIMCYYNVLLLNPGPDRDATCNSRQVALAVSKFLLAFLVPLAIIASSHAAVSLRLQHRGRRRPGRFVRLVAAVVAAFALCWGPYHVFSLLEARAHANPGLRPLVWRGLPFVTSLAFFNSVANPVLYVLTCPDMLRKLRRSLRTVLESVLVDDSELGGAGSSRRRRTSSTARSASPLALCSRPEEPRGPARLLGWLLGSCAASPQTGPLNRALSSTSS
Test Description: CRTH2 antagonist test (PGD2-induced intracellular calcium ion concentration increase in KB8 cells)
Assay type: cell-based
Stated Conditions: PGD2 final concentration 100 nM, Fluo-4-AM fluorescence, read-out: antagonist activity (IC50 value, inhibition of calcium ion concentration increase)
Please respond with reported IC50 for every item in the list.

Respectfully, I request IC50 for each entry included below.
1. COc1ccc(C(=O)Nc2ccc(C(=O)c3ncc(CC(=O)O)c4ccccc34)cc2)cc1
2. O=C(O)Cc1cnc(C(=O)c2ccc(NC(=O)c3ccc(C(=O)c4ccccc4)cc3)cc2)c2ccccc12
3. COc1ccccc1CCNC(=O)c1ccc(Cc2ncc(CC(=O)O)c3ccccc23)cc1
4. O=C(O)Cc1cnc(C(=O)c2ccc(NC(=O)c3c(Cl)cccc3Cl)cc2)c2ccccc12
5. O=C(O)Cc1cnc(C(=O)c2ccc(Oc3ccccc3)cc2)c2ccccc12
6. O=C(O)Cc1cnc(C(=O)c2ccc(NC(=O)c3csc4ccccc34)cc2)c2ccccc12
7. O=C(O)Cc1cnc(C(=O)c2ccc(NC(=O)c3ccncc3)cc2)c2ccccc12

Response:
< 50 nM
< 50 nM
50 to 500 nM
≥ 1000 nM
≥ 1000 nM
< 50 nM
≥ 1000 nM
